# Assay method text: Pharmacokinetics (PK) of CDD-2807 in mice
# Assay type: in vivo
# Study conditions: male, C57BL/6NJ, mouse, ip, i.p. injection 5 mg/kg, plasma
# Experimental: Pharmacokinetics (PK) of CDD-2807 in mice. The pharmacokinetic studies (72) of CDD-2807 were performed at three doses via intraperitoneal (i.p.) injection and oral (p.o.) administration. CDD-2807 was dissolved in 10% Captisol containing 5% DMSO to prepare the solutions of 0.5 mg/mL, 2.5 mg/mL and 5.0 mg/mL. […] All the samples were analyzed by the Thermo TSQ Quantis MS coupled with a Thermo Vanquish UHPLC (San Jose, CA). […] CDD-2807 was monitored under the SRM mode coupled with a positive ESI source. […]
Measured quantity: AUC(0-t) (µM·h)
Answer in µM·h, number only, no unit symbol.

Exercise: Name the recorded AUC(0-t) for O=C(c1ccc2[nH]nc(C#Cc3ccccc3-c3ccccc3)c2c1)N1CC2(CCCNC2)C1 [CDD-2807] .
Key: 9.46
